# credit: the supplement of paper PMC12494721

growth reference
# System: Klebsiella aerogenes DSM 30053
# method: growth (OD595) fold change vs plate DMSO controls (fold change (ratio)); higher = more growth
# run.parameters: incubation time: 27 h, anaerobic, 37 °C
Where a name gives a salt, the structure may show the parent alone.
result.type: growth

>>> print(df.to_string())
                                    molecule  result_number
 0  Cn1c(=O)c2c(ncn2CC(=O)O)n(C)c1=O [Acefylline] (20 µM)           1.02
 1  CC(=O)O[C@]1(C(C)=O)CC[C@H]2[C@@H]3C=C(C)C4=CC(=O)CC[C@@H]4[C@H]3CC[C@@]21C [Nomegestrol acetate] (20 µM)           1.05
 2  Nc1ncnc2c1ncn2[C@@H]1O[C@H](COP(=O)(O)O)[C@@H](O)[C@H]1O [5'-Adenylic acid] (50 µM)           1.04
 3  CCN1CCCC(OC(=O)C(c2ccccc2)c2ccccc2)C1 (stereo not given) [Piperidolate hydrochloride] (20 µM)          0.987
 4  CCCC(CCC)C(=O)O[C@H]1C[C@H]2CC[C@@H](C1)[N+]2(C)C [Anisotropine Methylbromide] (20 µM)           0.99
 5  C=CCN1CCCC1CNC(=O)c1cc2nn[nH]c2cc1OC (stereo not given) [Alizapride hydrochloride] (20 µM)           1.05
 6  O=C(O)c1cc(=O)c2c(OCC(O)COc3cccc4oc(C(=O)O)cc(=O)c34)cccc2o1 [Cromolyn disodium salt] (20 µM)           1.02
 7  CN(C)CCC[C@@]1(c2ccc(F)cc2)OCc2cc(C#N)ccc21 [Escitalopram oxalate] (20 µM)           1.11
 8  O=C1CN(/N=C/c2ccc(-c3ccc([N+](=O)[O-])cc3)o2)C(=O)N1 [Dantrolene sodium salt] (20 µM)          0.993
 9  O=C1[C@H](CC[C@H](O)c2ccc(F)cc2)[C@@H](c2ccc(O)cc2)N1c1ccc(F)cc1 [Ezetimibe] (20 µM)           1.02
10  O=C(Cn1c(=O)sc2ccc(Cl)cc21)N1CCN(CCO)CC1 [Tiaramide Hydrochloride] (20 µM)              1
11  O=C(COc1ccc(Cl)cc1)N1CCN(Cc2ccc3c(c2)OCO3)CC1 [Fipexide hydrochloride] (20 µM)          0.961
12  COc1cc2c(cc1OC)C(=O)C(CC1CCN(Cc3ccccc3)CC1)C2 (stereo not given) [Donepezil hydrochloride] (20 µM)           1.02
13  Cc1ncc([N+](=O)[O-])n1C [Dimetridazole] (20 µM)          0.995
14  CCCCOc1cc(C(=O)OCCN(CC)CC)ccc1N [Benoxinate hydrochloride] (20 µM)          0.988
